Species on record: Rattus norvegicus
TEST_PROTOCOL: DrugMatrix - Regimen: Daily Repeat
Assay type: toxicity, organism-based, Sprague-Dawley
Parameters: regimen Daily Repeat, gender Male, age 6-8 weeks
EXPERIMENTAL_CONTEXT: in vivo, po, 0 mg/kg, 72 h, tissue Blood, route oral GAVAGE, dose level Control, time 3 day, […]
Values of ABSOLUTE LYMPHOCYTE greater than or equal to 10000 CELLS/uL map to true (1); values below map to false (0).

[[record]]
compound = "CC#C[C@]1(O)CC[C@H]2[C@@H]3CCC4=CC(=O)CCC4=C3[C@@H](c3ccc(N(C)C)cc3)C[C@@]21C [MIFEPRISTONE]"
assigned_label = "true (1)"

[[record]]
compound = "Oc1ncnc2[nH]ncc12 [ALLOPURINOL]"
assigned_label = "true (1)"

[[record]]
compound = "COc1ccccc1OCCNCC(O)COc1cccc2[nH]c3ccccc3c12 (stereo not drawn) [CARVEDILOL]"
assigned_label = "false (0)"

[[record]]
compound = "COC(=O)Nc1nc2ccc(C(=O)c3ccccc3)cc2[nH]1 [MEBENDAZOLE]"
assigned_label = "false (0)"

[[record]]
compound = "c1ccc2c(c1)Nc1ccccc1S2 [PHENOTHIAZINE]"
assigned_label = "false (0)"

[[record]]
compound = "CS(=O)(=O)c1ccc(C2=C(c3ccccc3)C(=O)OC2)cc1 [ROFECOXIB]"
assigned_label = "false (0)"

[[record]]
compound = "O=C(O)COC(=O)Cc1ccccc1Nc1c(Cl)cccc1Cl [ACECLOFENAC]"
assigned_label = "false (0)"

[[record]]
compound = "CO[C@H]1O[C@@H]2O[C@@]3(C)CC[C@H]4[C@H](C)CC[C@@H]([C@H]1C)[C@@]24OO3"
assigned_label = "true (1)"

[[record]]
compound = "Cc1cccc(C)c1NC(=O)C(C)N (stereo not drawn) [TOCAINIDE]"
assigned_label = "false (0)"

[[record]]
compound = "CC(C)(c1ccc(O)cc1)c1ccc(O)cc1 [BISPHENOL A]"
assigned_label = "false (0)"

[[record]]
compound = "CCC(C)(C)C(=O)O[C@H]1C[C@@H](C)C=C2C=C[C@H](C)[C@H](CC[C@@H]3C[C@@H](O)CC(=O)O3)[C@H]21 [SIMVASTATIN]"
assigned_label = "true (1)"

[[record]]
compound = "O=C(Nc1ccc(Cl)c(Cl)c1)c1cc(Cl)cc(Cl)c1O [3,3',4',5-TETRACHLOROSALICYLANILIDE]"
assigned_label = "true (1)"


====

Species: Rattus norvegicus
TEST_PROTOCOL: DrugMatrix - Regimen: Daily Repeat
Assay type: toxicity, organism-based, Sprague-Dawley
Design: regimen Daily Repeat, gender Male, age 6-8 weeks
EXPERIMENTAL_CONTEXT: in vivo, po, 1500 mg/kg, 120 h, tissue Blood, route oral GAVAGE, dose level High, time 5 day, vehicle .5 % CMC
compounds and their reported NUCLEATED RED BLOOD CELLS
MEASURED_METRIC: NUCLEATED RED BLOOD CELLS

[[record]]
compound = "O=C(O)CCc1nc(-c2ccccc2)c(-c2ccccc2)o1 [OXAPROZIN]"
measured_metric = "NUCLEATED RED BLOOD CELLS"
value_measured = "0.33 /100WBC"

[[record]]
compound = "COc1cc(/C=C/C(=O)O)ccc1O [FERULATE]"
measured_metric = "NUCLEATED RED BLOOD CELLS"
value_measured = "0.33 /100WBC"

[[record]]
compound = "Cc1ccc(S(=O)(=O)NC(=O)NN2CCCCCC2)cc1 [TOLAZAMIDE]"
measured_metric = "NUCLEATED RED BLOOD CELLS"
value_measured = "0 /100WBC"

[[record]]
compound = "CC[C@H]1OC(=O)[C@H](C)[C@@H](O[C@H]2C[C@@](C)(OC)[C@@H](O)[C@H](C)O2)[C@H](C)[C@@H](O[C@@H]2O[C@H](C)C[C@H](N(C)C)[C@H]2O)[C@](C)(O)C[C@@H](C)C(=O)[C@H](C)[C@@H](O)[C@]1(C)O [ERYTHROMYCIN]"
measured_metric = "NUCLEATED RED BLOOD CELLS"
value_measured = "0 /100WBC"

